# Test system: in vitro model of the blood brain barrier (brain capillary endothelial cells co-cultured with glial cells)
# protocol-description: In vitro BBB model: passage of p97 tryptic digest peptides, LC-MS/MS peak areas in luminal and abluminal compartments
# Format: in vitro ADME, rat
# condition-info: tryptic peptides, abluminal compartment, 120 minutes, 3 micron pore size, LC-MS/MS peak area
property: Ablum 120: Area
Number only, no unit.

[[record]]
residue_codes = "NYPSSLCALCVGDEQGR [tryptic peptide fragment of human p97]"
property = "Ablum 120: Area"
meas_value = "7.34E+07"


Field: next sequence
Can you look up the measured Ablum 120: Area of ADTDGGLIFRLLNEGQR [tryptic peptide fragment of human p97] for me? 0.00E+00

Data credit: patent US9364567B2
